Assay: resazurin metabolic signal in A549 cells – cell-based, resazurin fluorescence, 24 h, PK04 Diversity Set, profiling panel (AID 1171); note: test concentration not given here
Conditions: A549 viability, higher = more signal, called active from +8 up or from −8 down
z-score strictly less than 0.2 = Met. Otherwise Not met.

Lab note: confirm whether the reported z-score for this compound is below 0.2, equality not counting. compound: CC(C)[Si]1(C(C)C)OCc2cc(-c3ccc(-c4ccc(Cl)c(Cl)c4)o3)nc(-c3ccccc3)c21
Not met

Input COC(=O)c1c(CC[C@@H](CO)NC(=O)N2CCC[C@H]2Cn2cc(C3(O)CCCCC3)nn2)oc(C(C)=O)c1C(=O)OC ; condition: z-score strictly below 0.2. Does it hold?
Met

Strictly below 0.2 in z-score? COCCOC(=O)N1C(=O)[C@@]2(c3cc(C#CCCO)ccc31)[C@H](c1ccc(OCCO)cc1)N1[C@H](c3ccccc3)[C@H](c3ccccc3)OC(=O)[C@H]1[C@@H]2C(=O)Nc1nc2ccccc2s1
Met

hey, is z-score for COCCOC(=O)N1C(=O)[C@@]2(c3cc(C#CCC(C(=O)OC)C(=O)OC)ccc31)[C@H](c1ccc(OCCO)cc1)N1[C@H](c3ccccc3)[C@H](c3ccccc3)OC(=O)[C@H]1[C@@H]2C(=O)N1CCc2cc(OC)c(OC)cc2C1 lower than 0.2 or not?
Met

# TODO verify z-score < 0.2 strictly for this compound: O=C1O[C@@H](c2ccccc2)[C@@H](c2ccccc2)N2[C@@H](c3ccc(O)cc3)[C@]3(C(=O)Nc4ccc(C#CCCO)cc43)[C@@H](C(=O)N3CCN(c4ncccn4)CC3)[C@H]12
Not met

Just wondering, is z-score of CC(C)N1C(=O)c2ccccc2[C@@H](C(=O)NCCN2CCOCC2)[C@@H]1c1ccc(CO)cc1 below 0.2?
Met
